biological target: hTGase 3 (Homo sapiens, UniProt Q08188); experiment: FA-based assay, characterization of irreversible inhibitors
Sequence (Q08188 2-467 limits assumed): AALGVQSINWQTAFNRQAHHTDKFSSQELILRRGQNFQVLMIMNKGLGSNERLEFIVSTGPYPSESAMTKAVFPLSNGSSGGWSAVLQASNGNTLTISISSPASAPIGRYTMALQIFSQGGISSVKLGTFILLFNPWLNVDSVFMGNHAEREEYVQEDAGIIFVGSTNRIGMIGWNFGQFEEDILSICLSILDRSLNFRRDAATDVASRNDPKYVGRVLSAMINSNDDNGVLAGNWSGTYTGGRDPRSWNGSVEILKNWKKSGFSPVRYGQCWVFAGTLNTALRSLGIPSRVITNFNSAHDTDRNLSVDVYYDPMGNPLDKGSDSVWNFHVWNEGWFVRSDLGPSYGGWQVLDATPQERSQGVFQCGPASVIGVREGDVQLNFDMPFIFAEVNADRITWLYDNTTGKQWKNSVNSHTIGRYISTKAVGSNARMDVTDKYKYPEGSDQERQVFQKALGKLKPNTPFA
Sequence (Q08188 468-693 partner limits assumed): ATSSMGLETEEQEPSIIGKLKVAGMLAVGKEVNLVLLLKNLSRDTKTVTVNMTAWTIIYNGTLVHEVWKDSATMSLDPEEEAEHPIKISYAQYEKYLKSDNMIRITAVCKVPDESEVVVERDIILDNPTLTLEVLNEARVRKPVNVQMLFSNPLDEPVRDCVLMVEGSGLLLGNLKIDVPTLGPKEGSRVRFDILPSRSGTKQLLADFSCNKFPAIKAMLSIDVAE
Let's look at some compounds and their measured IC50.

# example entries with known answers
givenSmiles | result
C#Cc1cccc(N2CCN(C(=O)[C@H](CCCCNC(=O)C=C)NC(=O)Cc3ccccc3)CC2)n1 | > 100 µM
C=CC(=O)NCCCC[C@H](NC(=O)Cc1ccccc1)C(=O)N1CCN(c2cccc(C)n2)CC1 | > 30 µM
C=CC(=O)NCCCC[C@H](NC(=O)Cc1ccccc1)C(=O)N1CCN(c2ccc([N+](=O)[O-])nc2)CC1 | 32.8 µM

Below: the item to evaluate.
(Q) For the compound C=CC(=O)NCCCC[C@H](NC(=O)Cc1ccccc1)C(=O)N1CCN(c2cccc(-c3cn(CCOCCOCCOCCNC(=O)CCCC[C@@H]4SC[C@@H]5NC(=O)N[C@@H]54)nn3)n2)CC1 , report IC50.
(A) > 100 µM

Values from paper PMC9104438
